# credit: patent US6835382B2

Documented Times Baseline Response, E^d across a set of substances
Biological target: murine E^d MHC class II allele (Mus musculus, UniProt P01904+P01915)
Sequence (P01904 26-255): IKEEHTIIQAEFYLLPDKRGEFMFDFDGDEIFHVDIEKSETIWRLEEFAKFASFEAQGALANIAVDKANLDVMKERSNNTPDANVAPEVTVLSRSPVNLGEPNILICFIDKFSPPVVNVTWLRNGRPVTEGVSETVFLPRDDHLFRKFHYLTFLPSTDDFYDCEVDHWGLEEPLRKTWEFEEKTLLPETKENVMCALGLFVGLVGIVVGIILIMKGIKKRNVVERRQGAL
Sequence (P01915 27-264 limits assumed): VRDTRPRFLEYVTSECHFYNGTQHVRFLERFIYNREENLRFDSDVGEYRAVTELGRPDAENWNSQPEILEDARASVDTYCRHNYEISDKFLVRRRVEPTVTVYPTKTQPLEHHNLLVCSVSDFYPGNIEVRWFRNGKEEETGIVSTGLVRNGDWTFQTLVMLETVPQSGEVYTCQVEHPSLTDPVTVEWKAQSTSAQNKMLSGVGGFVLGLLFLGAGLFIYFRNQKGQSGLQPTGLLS
Assay: simultaneous assay, E^d allele (A20 APC, G28.C9 T hybridoma, HEL106-116; HT-2 [3H]TdR readout)
Assay type: cell-based
Set-up: The A20 and CH27 B cell lymphoma lines express H-2^d and H-2^k alleles, respectively; endogenous in cells; host or cells: A20 B cell lymphoma (mitomycin C-treated or paraformaldehyde-fixed)
Settings: Table 18; AE peptide 64 μM; supernatant 1:4
Positions of bridges follow the written chain, without caps; N, C: chain ends. No end group written: not given here.

| SUBSTANCE | TARGET_OF_ASSAY | Times Baseline Response, E^d |
| --- | --- | --- |
| Ac-LRMKLPK-NH2 [AE114] | murine E^d MHC class II allele (Mus musculus, UniProt P01904+P01915) | 12.4 |
| Ac-LRMKLPK (lactam 4-C) [AE382] | murine E^d MHC class II allele (Mus musculus, UniProt P01904+P01915) | 1.9 |
| cyclic LRMKLPK (bridge (positions not given here); also: cyclic, ring type not given here) [AE381, “head-to-tail” cyclization from the amino-terminus to the carboxyl-terminus of AE114] | murine E^d MHC class II allele (Mus musculus, UniProt P01904+P01915) | 2.1 |
| Ac-LRMK Y PK-NH2 (Ac-LRMKYPK-NH2; not fully specified; printed as Ac-LRMK Y PK-NH2) [AE235] | murine E^d MHC class II allele (Mus musculus, UniProt P01904+P01915) | 12.5 |
